These data points were gathered from patent EP0938471B1.

# MEASURED_ON: MMP-9 (Homo sapiens)
# Sequence (P14780 94-707): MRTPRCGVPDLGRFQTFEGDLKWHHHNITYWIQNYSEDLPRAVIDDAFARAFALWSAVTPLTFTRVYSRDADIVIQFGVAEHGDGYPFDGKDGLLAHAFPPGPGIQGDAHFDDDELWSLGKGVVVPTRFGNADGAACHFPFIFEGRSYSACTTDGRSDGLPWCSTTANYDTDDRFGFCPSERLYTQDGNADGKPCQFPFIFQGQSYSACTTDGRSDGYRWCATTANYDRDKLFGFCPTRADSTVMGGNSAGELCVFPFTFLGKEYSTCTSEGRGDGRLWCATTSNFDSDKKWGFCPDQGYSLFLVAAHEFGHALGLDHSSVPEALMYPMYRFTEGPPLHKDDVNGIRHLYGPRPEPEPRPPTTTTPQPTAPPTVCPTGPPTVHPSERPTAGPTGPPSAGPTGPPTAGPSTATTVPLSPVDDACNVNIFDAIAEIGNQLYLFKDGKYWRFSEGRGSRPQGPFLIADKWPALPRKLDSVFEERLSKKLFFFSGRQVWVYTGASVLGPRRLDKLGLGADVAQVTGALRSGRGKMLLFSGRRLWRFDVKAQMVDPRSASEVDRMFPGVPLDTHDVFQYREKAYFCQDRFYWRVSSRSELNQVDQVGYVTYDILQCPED
# EXPERIMENT: MMP-9 inhibition (thiopeptide or fluorescent peptide substrate assay)
# Format: biochemical
# TEST_CONTEXT: read-out: MMP-9 IC50
QUANTITY_KIND: IC50 (nM)

P: CCc1cc(C)c(N(Cc2cccnc2)S(=O)(=O)c2ccc(OC)cc2)c(C(=O)NO)c1
Q: Cc1cc(C)c(N(Cc2ccccc2)S(=O)(=O)c2ccc(OCc3ccccc3)cc2)c(C(=O)NO)c1
R: COc1ccc(S(=O)(=O)N(Cc2ccccc2)c2c(C(=O)NO)ccc(Cl)c2C)cc1
S: COc1ccc(S(=O)(=O)N(Cc2ccccc2)c2ccc(C)cc2C(=O)NO)cc1
Arrange these molecules by their IC50, starting with the largest number. Response format: the labels, sorted as the prompt asks.
Q, S, R, P
